Reported IC50 on Caspase-3 (Homo sapiens, UniProt P42574) for assorted molecules, compiled from publications.

Molecule | Test system | IC50
CC(C)[C@H](NC(=O)[C@H](C)NC(=O)[C@H](CC(=O)O)NC(=O)c1ccccc1)C(=O)N[C@@H](CC(=O)O)C(=O)CCCc1ccccc1 | Caspase-3 (Homo sapiens, UniProt P42574) | 1.8 nM
O=C1C(=O)N(Cc2ccc(OCCOCCF)cc2)c2ccc(S(=O)(=O)N3CC[C@H]3COc3ccccc3)cc21 | Caspase-3 (Homo sapiens, UniProt P42574) | 27.9 nM
Cc1nc2ccccc2c2c1C(=O)NC2=O | Caspase-3 (Homo sapiens, UniProt P42574) | > 100000 nM
O=C1C(=O)N(Cc2ccc(F)cc2)c2ccc(S(=O)(=O)N3CCC[C@H]3COc3ccccc3)cc21 | Caspase-3 (Homo sapiens, UniProt P42574) | 12.1 nM
O=C1C(=O)N(Cc2ccc(OCCF)cc2)c2ccc(S(=O)(=O)N3CC[C@H]3COc3ccccc3)cc21 | Caspase-3 (Homo sapiens, UniProt P42574) | 8.6 nM
O=C(CN1CC=CC[C@H](NC(=O)c2cccc(Cl)c2)C1=O)N[C@H]1CC(=O)OC1O (some centres not stated) | Caspase-3 (Homo sapiens, UniProt P42574) | > 10000 nM
O=C1C[C@H](NC(=O)[C@@H]2CN(S(=O)(=O)c3ccccc3)C[C@@H]3CCCC[C@H](NC(=O)c4ccc5ccccc5c4)C(=O)N32)C(O)O1 (some centres not stated) | Caspase-3 (Homo sapiens, UniProt P42574) | > 10000 nM
Cn1c(S)nc2c1c(=O)n(Cc1ccccc1)c(=O)n2C | Caspase-3 (Homo sapiens, UniProt P42574) | > 200000 nM
CCO[C@@H]1OC(=O)C[C@@H]1NC(=O)[C@@H]1CCCN2C(=O)CC[C@H](NC(=O)c3nccc4ccccc34)C(=O)N12 | Caspase-3 (Homo sapiens, UniProt P42574) | 1300 nM
O=C(CN1CCCN(C(=O)N2CCNCC2)C[C@H](NC(=O)c2ccc3ccccc3c2)C1=O)N[C@H]1CC(=O)OC1O (some centres not stated) | Caspase-3 (Homo sapiens, UniProt P42574) | > 10000 nM
CC(=O)OCCN1C(=O)c2c(SC(=N)N)nc3ccc(S(=O)(=O)N4CCOCC4)cc3c2C1=O | Caspase-3 (Homo sapiens, UniProt P42574) | 255 nM
CSc1ccc(CN2C(=O)C(=O)c3cc(S(=O)(=O)N4CCC[C@H]4COc4cccnc4)ccc32)cc1 | Caspase-3 (Homo sapiens, UniProt P42574) | 4.4 nM
COc1ccccc1CC(=O)N[C@H](C(=O)N[C@@H](CC(=O)O)C(=O)CSCc1ccccc1)C(C)C | Caspase-3 (Homo sapiens, UniProt P42574) | 310 nM
COC(=O)C[S+]([O-])c1nc2ccc(S(=O)(=O)N3CCOCC3)cc2c2c1C(=O)N(CCOC(C)=O)C2=O (configuration not stated) | Caspase-3 (Homo sapiens, UniProt P42574) | 352 nM
CS(=O)(=O)N1C[C@@H]2CCCC[C@H](NC(=O)c3ccccc3)C(=O)N2[C@H](C(=O)N[C@H]2CC(=O)OC2O)C1 (some centres not stated) | Caspase-3 (Homo sapiens, UniProt P42574) | > 10000 nM
O=C1C[C@H](NC(=O)[C@@H]2CS[C@@H]3CCC[C@H](NC(=O)OCc4ccccc4)C(=O)N32)C(O)O1 (some centres not stated) | Caspase-3 (Homo sapiens, UniProt P42574) | > 10000 nM
COc1cccc(CC(=O)N[C@H](C(=O)N[C@@H](CC(=O)O)C(=O)CSCc2ccccc2)C(C)C)c1 | Caspase-3 (Homo sapiens, UniProt P42574) | 210 nM
